target: A13DBD WT (mouse (murine), UniProt Q62424 320-386); test: ITC; FA: 20 mM Tris pH 7.5, 80 mM KCl, 10 mM MgCl2, 0.2 mM EDTA, 1 mM DTT, 15 C, 1 nM DNA; NMR complex: 20 mM NaPO4 pH 6.0, 5 mM MgCl2, 10% D2O, 310 K; ITC buffer not given in the material; details: protein: recombinant; tags: His-tag removed by thrombin; blunt
Sequence (Q62424 320-386): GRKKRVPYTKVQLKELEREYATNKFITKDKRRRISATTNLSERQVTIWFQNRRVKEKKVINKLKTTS
Listed binders paired with reported Kd
metric_name: Kd (nM)

{"columns": ["binder", "metric_name", "test_value"],
 "data": [
  ["11-mer duplex WT (dsDNA) DNA 1: CAAATAAAATC DNA 2: GATTTTATTTG", "Kd", 7.5],
  ["11-mer T5U (dsDNA, deoxyuridine at T5 (DNA strand)) DNA 1: CAAAUAAAATC DNA 2: GATTTTATTTG", "Kd", 14.5]
]}

Data origin, for the record: paper PMC3148250
